testedOn: 5-HT1A receptor (rat hippocampus) (Rattus norvegicus)
Construct: hippocampus; from tissue; host or cells: rat hippocampus
Sequence (P19327 1-422): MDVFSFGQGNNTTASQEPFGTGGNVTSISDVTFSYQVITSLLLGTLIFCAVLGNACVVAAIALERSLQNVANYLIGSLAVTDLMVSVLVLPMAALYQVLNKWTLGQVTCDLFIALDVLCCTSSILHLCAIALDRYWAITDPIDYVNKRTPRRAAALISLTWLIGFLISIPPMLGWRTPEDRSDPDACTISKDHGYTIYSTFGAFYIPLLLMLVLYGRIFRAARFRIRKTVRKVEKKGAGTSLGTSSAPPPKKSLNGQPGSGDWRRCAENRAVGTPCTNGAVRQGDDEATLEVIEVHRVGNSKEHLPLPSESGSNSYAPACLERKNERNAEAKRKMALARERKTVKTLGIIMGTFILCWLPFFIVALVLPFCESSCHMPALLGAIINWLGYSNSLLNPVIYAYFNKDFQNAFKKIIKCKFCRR
testDetails: Radioligand binding assay, serotoninergic 5-HT1A receptors;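 further: test compound at 1 µM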
cond: binding assay result in %, Table 5a
We use 70% as the dividing line for inhibition at 1 µM: on or above the line is criterion met, below is criterion not met.

Previously resolved entries follow.
| compound | labelValue |
| --- | --- |
| O=S(=O)(NC1CCN(CCCc2noc3cc(F)ccc23)C1)c1cc2ccccc2s1 (centres unmarked) | criterion met |
| Cc1c(S(=O)(=O)N[C@@H]2CCN(CCCc3noc4cc(F)ccc34)C2)sc2ccc(F)cc12 | criterion not met |
| O=S(=O)(NCC1CCN(CCCc2noc3cc(F)ccc23)C1)c1ccc(Cl)cc1 (centres unmarked) | criterion not met |
| O=S(=O)(NC1CCN(CCCc2noc3cc(F)ccc23)C1)c1cc2ccccc2o1 (centres unmarked) | criterion not met |
| O=S(=O)(NCC1CN(CCOc2cccc3ccccc23)C1)c1ccc(F)c(Cl)c1 | criterion met |

Ask: Exam item: decide whether the reported inhibition at 1 µM for CC(C)(C)c1ccc(S(=O)(=O)NCC2CN(CCCc3noc4cc(F)ccc34)C2)cc1 is at least 70%.
Result: criterion not met

Ask: Check if inhibition at 1 µM >= 70% (inclusive). Item: O=S(=O)(NCC1CCN(CCOc2cccc3c2OCCO3)C1)c1cccc(O)c1 (centres unmarked)
Result: criterion met

====

testedOn: serotonin transporter (SERT) (Homo sapiens, UniProt P31645)
Construct: expressed in transfected cells; host or cells: CHO cells
Sequence (P31645 whole entry): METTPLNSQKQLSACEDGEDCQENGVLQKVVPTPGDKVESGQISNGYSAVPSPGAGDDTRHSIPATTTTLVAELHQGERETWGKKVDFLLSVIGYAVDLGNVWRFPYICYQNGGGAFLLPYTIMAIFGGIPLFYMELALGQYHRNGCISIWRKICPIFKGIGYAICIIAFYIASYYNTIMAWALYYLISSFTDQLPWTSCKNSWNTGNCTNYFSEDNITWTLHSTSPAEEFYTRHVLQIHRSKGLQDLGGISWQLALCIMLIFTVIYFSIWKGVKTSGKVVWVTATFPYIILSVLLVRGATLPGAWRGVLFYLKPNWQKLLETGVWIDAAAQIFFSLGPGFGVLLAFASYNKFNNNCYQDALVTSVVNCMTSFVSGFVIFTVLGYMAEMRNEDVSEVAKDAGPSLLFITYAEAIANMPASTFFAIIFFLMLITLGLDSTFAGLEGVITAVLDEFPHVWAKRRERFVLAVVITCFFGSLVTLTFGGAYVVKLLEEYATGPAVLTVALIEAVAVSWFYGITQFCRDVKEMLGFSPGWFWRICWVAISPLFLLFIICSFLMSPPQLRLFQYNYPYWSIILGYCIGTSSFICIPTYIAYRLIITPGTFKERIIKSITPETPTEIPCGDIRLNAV
testDetails: Radioligand binding assay, serotonin transporter (SERT)
cond: binding assay, test compound 1×10^−6 M
# cutoff 20% applies to inhibition at 1 µM; >= gives 1.0, < gives 0.0

Ask: Quick check, inhibition at 1 µM >= 20%? Cc1c(S(=O)(=O)N[C@@H]2CCN(CCCc3noc4cc(F)ccc34)C2)sc2ccc(F)cc12
Result: 1.0

Ask: Is inhibition at 1 µM at least 20%? Consider O=S(=O)(NC1CCN(CCCc2c[nH]c3ccc(F)cc23)C1)c1cccc2ccccc12 (centres unmarked)
Result: 1.0

Ask: Hi, just wondering whether O=S(=O)(NC1CCN(CCCc2noc3cc(F)ccc23)C1)c1cccc(Cl)c1 (centres unmarked) shows inhibition at 1 µM of 20% or higher.
Result: 0.0

Ask: Quick check, inhibition at 1 µM >= 20%? Cn1ccc2c(S(=O)(=O)NC3CCN(CCCc4noc5cc(F)ccc45)CC3)cccc21
Result: 1.0

Ask: Is the recorded value of inhibition at 1 µM equal to or greater than 20% for this molecule? CC(C)(C)c1ccc(S(=O)(=O)NCC2CN(CCOc3cccc4c3OCCO4)C2)cc1
Result: 1.0

Ask: Threshold query (inhibition at 1 µM >= 20%) on Cn1ccc2cc(S(=O)(=O)NCC3CN(CCOc4cccc5c4OCCO5)C3)ccc21
Result: 1.0

Ask: Is inhibition at 1 µM for CCCc1ccc(S(=O)(=O)NCC2CN(CCCc3noc4cc(F)ccc34)C2)cc1 at or above 20%?
Result: 1.0

Ask: Please check the record O=S(=O)(NC1CCN(CCCc2noc3cc(F)ccc23)C1)c1ccc(Cl)s1 (centres unmarked) and state if its inhibition at 1 µM is at or above 20%.
Result: 0.0

====

Test system: α1 adrenergic receptors (rat cerebral cortex)
testDetails: Radioligand binding assay, adrenergic α1 receptors
cond: test compound 1×10^−6 M
Excerpt: The specific ligand binding to the receptors is defined as the difference between the total binding and the non-specific binding determined in the presence of the excess of unlabelled ligand. The results are expressed as a percent of control specific binding ((measured specific binding/control specific binding)×100) and as a percent inhibition of control specific binding (100−((measured specific binding/control specific binding)×100)) obtained in the presence of the test compounds. […]
attributeMeasured: α1 [%] (%)
Numbers only, in %.

Some entries whose results are on file:
| compound | α1 [%] / % |
| --- | --- |
| O=S(=O)(NC1CCN(CCCc2noc3cc(F)ccc23)C1)c1cccc(C(F)(F)F)c1 (centres unmarked) [Compound 15] | 89 |
| O=S(=O)(NC1CCN(CCCc2noc3cc(F)ccc23)C1)c1ccc2c(c1)OCO2 (centres unmarked) [Compound 194] | 96 |
| O=S(=O)(NCC1CCN(CCCc2noc3cc(F)ccc23)C1)c1cccc2ccccc12 (centres unmarked) [Compound 239] | 91 |
| O=S(=O)(NCC1CCN(CCOc2cccc3c2OCCO3)C1)c1cccs1 (centres unmarked) [Compound 302] | 63 |
| O=S(=O)(NC1CCN(CCOc2cccc3c2OCCO3)CC1)c1ccccc1 [Compound 117] | 53 |
| O=S(=O)(N[C@H]1CCN(CCCc2noc3cc(F)ccc23)C1)c1ccc2cc(Cl)ccc2c1 [Compound 201] | 82 |

Parameters: items (list). Returns: α1 [%] for each item.
1. O=S(=O)(NC1CCN(CCOc2nsc3ccccc23)CC1)c1ccc2ccccc2c1 [Compound 40]
2. O=S(=O)(NCC1CCN(CCOc2cccc3c2OCCO3)C1)c1ccc(Cl)s1 (centres unmarked) [Compound 316]

Result:
1. 12
2. 66

Dear colleague, could you send me α1 [%] for each of the items below? Thanks.
1. O=S(=O)(NCC1CCN(CCOc2cccc3c2OCCO3)C1)c1cccc(O)c1 (centres unmarked) [Compound 303]
2. O=S(=O)(NCC1CCN(CCCc2noc3cc(F)ccc23)C1)c1ccc(Cl)c(Cl)c1 (centres unmarked) [Compound 253]
3. O=S(=O)(NCC1CN(CCOc2cccc3c2OCCO3)C1)c1ccc2ccccc2c1 [Compound 177]
4. O=S(=O)(NCC1CN(CCOc2cccc3c2OCCO3)C1)c1ccc(F)cc1 [Compound 182]
5. O=S(=O)(N[C@@H]1CCN(CCCc2noc3cc(F)ccc23)C1)c1cc2ccc(Cl)cc2s1 [Compound 198]

Result:
1: 89; 2: 94; 3: 55; 4: 78; 5: 76

// each compound listed below needs its α1 [%]
1. O=S(=O)(NCC1CN(CCOc2cccc3c2OCCO3)C1)c1ccc(Cl)cc1 [Compound 179]
2. O=S(=O)(NC1CN(CCOc2cccc3c2OCCO3)C1)c1cccc2ccccc12 [Compound 94]
3. Cc1cccc(S(=O)(=O)NC2CCN(CCCc3c[nH]c4ccc(Cl)cc34)C2)c1 (centres unmarked) [Compound 86]
4. O=S(=O)(NC1CN(CCOc2cccc3c2OCCO3)C1)c1ccccc1 [Compound 88]

Result:
1. 61
2. 87
3. 50
4. −23

====

testedOn: 5-HT1A receptor (rat hippocampus) (Rattus norvegicus, UniProt P19327)
Construct: hippocampus; from tissue; host or cells: rat hippocampus
testDetails: Radioligand binding assay, serotoninergic 5-HT1A receptors;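 further: test compound at 1 µM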
cond: binding assay result in %, Table 5a
attributeMeasured: inhibition at 1 µM

Solved cases (6 shown):
| compound | attributeMeasured | obsValue |
| --- | --- | --- |
| O=S(=O)(NCC1CCN(CCOc2cccc3c2OCCO3)C1)c1ccc(Br)cc1 (centres unmarked) [Compound 305] | inhibition at 1 µM | 101% |
| O=S(=O)(NCC1CCN(CCOc2cccc3c2OCCO3)C1)c1cccc(F)c1 (centres unmarked) [Compound 298] | inhibition at 1 µM | 97% |
| Cn1ccc2cc(S(=O)(=O)NC3CCN(CCCc4noc5cc(F)ccc45)C3)ccc21 (centres unmarked) [Compound 218] | inhibition at 1 µM | 91% |
| O=S(=O)(NCC1CCN(CCCc2noc3cc(F)ccc23)C1)c1cccc(Cl)c1 (centres unmarked) [Compound 243] | inhibition at 1 µM | 21% |
| O=S(=O)(NC1CCN(CCCc2noc3cc(F)ccc23)C1)c1cc2ccc(F)cc2s1 (centres unmarked) [Compound 234] | inhibition at 1 µM | 45% |
| O=S(=O)(NC1CCN(CCCc2noc3cc(F)ccc23)C1)c1ccc(Br)cc1 (centres unmarked) [Compound 10] | inhibition at 1 µM | 20% |

Hello, I would appreciate it if you could give inhibition at 1 µM for each entry below.
1. O=S(=O)(NC1CCN(CCCc2c[nH]c3ccc(Cl)cc23)C1)c1ccccc1 (centres unmarked) [Compound 81]
2. COc1cccc(S(=O)(=O)NCC2CN(CCCc3noc4cc(F)ccc34)C2)c1 [Compound 143]

Result:
109%
44%

Source: patent US20140135310A1
